Value source: patent US9765056B2

test system: RS4;11 leukaemia tumour line; assay: In vitro cytotoxicity, Microculture Tetrazolium Assay (MTT); format: cell-based; settings: Homo sapiens; RS4;11 cells, 48 hours exposure
Counter-ions that a name gives are not always drawn.
As shown below, each of these compounds has a reported IC50 value.
Give the quantity in nM, number only.

Examples with their reported IC50 follow.
{"Compound": "Cc1cc(C(=O)N(c2ccc(O)cc2)c2ccc3[nH]ccc3c2)cn1-c1cc(Br)ccc1C(=O)N1Cc2ccccc2C[C@H]1CN1CCN(C)CC1 [Example 46]", "Test Value": 93.4}
{"Compound": "CN1CCN(C[C@@H]2Cc3ccccc3CN2C(=O)c2ccc(Cl)cc2-n2cc(C(=O)N(c3ccc(O)cc3)c3ccc(O)cc3)c3ccccc32)CC1 [Example 73]", "Test Value": 51.4}
{"Compound": "COc1cc(-n2cc(C(=O)N(c3ccccc3)c3ccc(O)cc3)c3ccccc32)c(C(=O)N2Cc3ccccc3C[C@H]2CN2CCCCC2)cc1O [Example 176, hydrochloride]", "Test Value": 225}
{"Compound": "CN1CCN(C[C@@H]2Cc3ccccc3CN2C(=O)c2cc3c(cc2-n2cc(C(=O)N(c4ccc(O)cc4)c4ccc5sccc5c4)c4ccccc42)OCO3)CC1 [Example 43]", "Test Value": 101}
{"Compound": "COc1ccc(C(=O)N2Cc3ccccc3C[C@H]2CN2CCN(C)CC2)c(-n2cc(C(=O)N(c3ccc(O)cc3)c3ccc4c(ccn4C)c3)c3ccccc32)c1 [Example 205]", "Test Value": 123}

Kindly note the recorded IC50 for Cc1ccc(N(C(=O)c2cn(-c3cc4c(cc3C(=O)N3Cc5ccccc5C[C@H]3CN3CCN(C)CC3)OCO4)c3ccccc23)c2ccc(O)cc2)cc1F [Example 52] , which is 77.3
